Experiment: Solubility, shake-flask method
Type: physicochemical
Settings: oil or lipid, thermodynamic from solid, MCT, 25 °C
test-readout: solubility at 24 h (µg/mL)
// return numeric value only (unit: µg/mL, not printed)

Lab note: measured solubility at 24 h of COc1ccc2c3nn(-c4ccc(OC(F)(F)F)cc4)c(=O)c-3c[nH]c2c1C [CW-02-79] was 49.9

---

Experiment: Solubility, shake-flask method
Type: physicochemical
Details: oil or lipid, thermodynamic from solid, Fish oil, 25 °C
test-readout: solubility at 24 h (µg/mL)
// return numeric value only (unit: µg/mL, not printed)

Lab note: measured solubility at 24 h of COc1ccc2c3nn(-c4ccc(OC(F)(F)F)cc4)c(=O)c-3c[nH]c2c1C was 34.2

---

Test: Solubility, shake-flask method
Format: physicochemical
Conditions: oil or lipid, thermodynamic from solid, Soybean oil, 25 °C
test-readout: solubility at 24 h
In your response, the unit should come after the numeric value.

Lab note: measured solubility at 24 h of COc1ccc2c3nn(-c4ccc(OC(F)(F)F)cc4)c(=O)c-3c[nH]c2c1C was 65.7 µg/mL

---

Test: Solubility, shake-flask method
Type: physicochemical
Conditions: oil or lipid, thermodynamic from solid, MCT:castor oil (1:1, w/w), 25 °C
test-readout: solubility at 24 h (µg/mL)
// return numeric value only (unit: µg/mL, not printed)

Lab note: measured solubility at 24 h of COc1ccc2c3nn(-c4ccc(OC(F)(F)F)cc4)c(=O)c-3c[nH]c2c1C [CW-02-79] was 218

---

Assay: Solubility, shake-flask method
Type: physicochemical
Settings: simulated gastric fluid, thermodynamic from solid, 0.1M HCl, 25 °C
test-readout: solubility at 24 h (µg/mL)
// return numeric value only (unit: µg/mL, not printed)

Lab note: measured solubility at 24 h of COc1ccc2c3nn(-c4ccc(OC(F)(F)F)cc4)c(=O)c-3c[nH]c2c1C was 12.3

---

Assay: Solubility, shake-flask method
Format: physicochemical
Conditions: organic solvent or mixture, thermodynamic from solid, Isopropanol, 25 °C
test-readout: solubility at 24 h (µg/mL)
// return numeric value only (unit: µg/mL, not printed)

Lab note: measured solubility at 24 h of COc1ccc2c3nn(-c4ccc(OC(F)(F)F)cc4)c(=O)c-3c[nH]c2c1C [CW-02-79] was 5750

---

Assay: Solubility, shake-flask method
Assay type: physicochemical
Conditions: oil or lipid, thermodynamic from solid, Castor oil, 25 °C
test-readout: solubility at 24 h

Lab note: measured solubility at 24 h of COc1ccc2c3nn(-c4ccc(OC(F)(F)F)cc4)c(=O)c-3c[nH]c2c1C was 28 µg/mL
